Every entry's value here was drawn from patent US7018817B1.

- System: PDF(Fe) (peptide deformylase) (Escherichia coli)
- Construct: made in house; host or cells: overproducing E. coli cells
- Sequence (P0A6K3 whole entry): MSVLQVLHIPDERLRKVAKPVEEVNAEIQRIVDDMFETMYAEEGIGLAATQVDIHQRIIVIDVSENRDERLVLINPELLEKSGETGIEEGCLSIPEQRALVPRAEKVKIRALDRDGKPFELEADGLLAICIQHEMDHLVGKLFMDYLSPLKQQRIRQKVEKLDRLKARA
- Assay Remarks: Enantioselective enzymatic deformylation of N-formyl compounds by PDF(Fe), HPLC analysis
- Type: biochemical, E. coli
- Condition Context: Method B: absence of Li2SO4, 100 mM MOPS/NaOH, 250 mM NaCl, 0.1 mg/ml catalase, pH 7.2, 37° C.
Overview of recorded kf (rate of deformylation of the most rapidly deformylated enantiomer) for various compounds

Example results:
- Compound: "O=CNC(CC(=O)O)c1ccccc1 (stereo not shown) [Example 2, N-formyl-3-amino-3-phenyl-propionic acid]"
  System: "PDF(Fe) (peptide deformylase) (Escherichia coli)"
  Result: "7,1 M^−1s^−1"
- Compound: "O=CNC(C(=O)O)c1ccccc1 (stereo not shown) [Example 1, N-formyl-phenylglycine]"
  System: "PDF(Fe) (peptide deformylase) (Escherichia coli)"
  Result: "10,6 M^−1s^−1"
- Compound: "O=CNC(CO)c1ccccc1 (stereo not shown) [Example 6, N-formyl-phenylglycinol]"
  System: "PDF(Fe) (peptide deformylase) (Escherichia coli)"
  Result: "0,69 M^−1s^−1"

Query compound follows.
Name the recorded kf (rate of deformylation of the most rapidly deformylated enantiomer) for COc1cccc(CC(C#N)NC=O)c1 (stereo not shown) [Example 11] . 1370 M⁻¹ s⁻¹

###

- System: PDF(Fe) (peptide deformylase) (Escherichia coli)
- Construct: made in house; host or cells: overproducing E. coli cells
- Assay Remarks: Enantioselective enzymatic deformylation of N-formyl compounds by PDF(Fe), HPLC analysis
- Format: biochemical, E. coli
- Condition Context: Method A: 100 mM MOPS/NaOH, 2 M Li2SO4, pH 7.2, 37° C.
Value Type: kf (rate of deformylation of the most rapidly deformylated enantiomer)

I'm curious: which kf (rate of deformylation of the most rapidly deformylated enantiomer) was measured for C[C@@H](CO)NC=O [Example 8, N-formyl-alaninol] tested on PDF(Fe) (peptide deformylase) (Escherichia coli)? 0,22 M^−1s^−1

Tell me reported kf (rate of deformylation of the most rapidly deformylated enantiomer) for CC(NC=O)c1cccc2ccccc12 (centres unmarked) [Example 12, N-formyl-1-(1-naphthyl)-ethylamine] , tested with PDF(Fe) (peptide deformylase) (Escherichia coli). 0,45 M^−1s^−1

Query for PDF(Fe) (peptide deformylase) (Escherichia coli): what kf (rate of deformylation of the most rapidly deformylated enantiomer) does the record show for O=CN1CCC[C@H]1C(=O)O [Comparative Experiment B, N-formyl-proline, reference compound] ? <0,004 M^−1s^−1

Kindly state the measured kf (rate of deformylation of the most rapidly deformylated enantiomer) obtained for O=CNC(CO)c1ccccc1 (centres unmarked) [Example 6, N-formyl-phenylglycinol] with PDF(Fe) (peptide deformylase) (Escherichia coli). 6,3 M^−1s^−1

Request: kf (rate of deformylation of the most rapidly deformylated enantiomer), test system PDF(Fe) (peptide deformylase) (Escherichia coli), entry CC(C)C(C#N)NC=O (centres unmarked) [Example 10, N-formyl-valine aminonitrile] 29,7 M^−1s^−1

###

- System: PDF(Fe) (peptide deformylase) (Escherichia coli)
- Construct: made in house; host or cells: overproducing E. coli cells
- Assay Remarks: Enantioselective enzymatic deformylation of N-formyl compounds by PDF(Fe), HPLC analysis
- Type: biochemical, E. coli
- Condition Context: Method B: absence of Li2SO4, 100 mM MOPS/NaOH, 250 mM NaCl, 0.1 mg/ml catalase, pH 7.2, 37° C.
- Procedure: PDF(Fe) was isolated from overproducing E. coli cells grown at 30° C. in 1.6 l TB medium for 14–16 h. […] The protein containing fractions were concentrated by ultrafiltration using an Amicon PM10 membrane (yield: 140 mg protein, 1400 U/mg; determined according to Groche et al.). […]
Listing of entries alongside the reported eemax (maximum ee value observed).

- Compound: "O=CNC(CC(=O)O)c1ccccc1 (stereo not shown)"
  eemax (maximum ee value observed): "100%"
- Compound: "COc1cccc(CC(C#N)NC=O)c1 (stereo not shown)"
  eemax (maximum ee value observed): "99,0%"

Form field: reported eemax (maximum ee value observed) of O=CNC(CO)c1ccccc1 (stereo not shown) 90,5%

Data request, read-out eemax (maximum ee value observed), for O=CNC(C(=O)O)c1ccccc1 (stereo not shown) 99,6%
